Biological target: SIX1-Q177R homeodomain (human, UniProt Q15475 108-198, Q177R)
Sequence: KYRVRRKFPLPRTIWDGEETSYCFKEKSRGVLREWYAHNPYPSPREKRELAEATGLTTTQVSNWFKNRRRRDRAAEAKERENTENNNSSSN
Test: universal protein binding microarray; Universal all-10-mer PBM (8x60K, AMADID 030236), 300 nM GST-tagged protein, Alexa Fluor 488 anti-GST; buffer, salt, pH and temperature not stated (as in Berger); high values mean tight binding
Details: protein: ivt; tags: N-terminal GST; dsDNA, one strand shown
Whole data set: some 33,000 sequences, median “e-score” near -0.05, cut for the highest 2% near 0.38. For the sample, the highest values were picked, then their nearest neighbours and some sequences at random.
Assay endpoint: binding signal (E-score)
The answer is to be given in E-score; state only the numeric part.

Observe how each entry below is paired with its result.
Entry GTTCGGTA : binding signal on SIX1-Q177R homeodomain (human, UniProt Q15475 108-198, Q177R) = 0.156

Entry GTGTTCAA : binding signal on SIX1-Q177R homeodomain (human, UniProt Q15475 108-198, Q177R) = 0.386

Entry CGCAATAC : binding signal on SIX1-Q177R homeodomain (human, UniProt Q15475 108-198, Q177R) = 0.276

Entry ACACCCCG : binding signal on SIX1-Q177R homeodomain (human, UniProt Q15475 108-198, Q177R) = 0.466

Entry ACGTGTTC : binding signal on SIX1-Q177R homeodomain (human, UniProt Q15475 108-198, Q177R) = 0.314

---
Entry CCGTGCTC : binding signal on SIX1-Q177R homeodomain (human, UniProt Q15475 108-198, Q177R) = 0.226

Entry ATACTCCC : binding signal on SIX1-Q177R homeodomain (human, UniProt Q15475 108-198, Q177R) = 0.162

Entry CGCAAACA : binding signal on SIX1-Q177R homeodomain (human, UniProt Q15475 108-198, Q177R) = 0.181

Entry GGATCAGA : binding signal on SIX1-Q177R homeodomain (human, UniProt Q15475 108-198, Q177R) = 0.17

Entry TAACACCA : binding signal on SIX1-Q177R homeodomain (human, UniProt Q15475 108-198, Q177R) = 0.477

Entry ACAAACAC : binding signal on SIX1-Q177R homeodomain (human, UniProt Q15475 108-198, Q177R) = 0.379

Entry GTATTCTA : binding signal on SIX1-Q177R homeodomain (human, UniProt Q15475 108-198, Q177R) = 0.174

Entry TACTCCAA : binding signal on SIX1-Q177R homeodomain (human, UniProt Q15475 108-198, Q177R) = 0.198

Entry ACACCCAA : binding signal on SIX1-Q177R homeodomain (human, UniProt Q15475 108-198, Q177R) = 0.454

Entry CCGTGTTC : binding signal on SIX1-Q177R homeodomain (human, UniProt Q15475 108-198, Q177R) = 0.384

Entry GCTACCAC : binding signal on SIX1-Q177R homeodomain (human, UniProt Q15475 108-198, Q177R) = 0.181

---

Consider the following sequences and their measured binding signal readings.
Target: SIX1-Q177R homeodomain (human, UniProt Q15475 108-198, Q177R)
Sequence: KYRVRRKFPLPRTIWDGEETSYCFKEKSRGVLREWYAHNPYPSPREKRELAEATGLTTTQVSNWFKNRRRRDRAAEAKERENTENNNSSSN
Test: universal protein binding microarray; Universal all-10-mer PBM (8x60K, AMADID 030236), 300 nM GST-tagged protein, Alexa Fluor 488 anti-GST; buffer, salt, pH and temperature not stated (as in Berger); high values mean tight binding
Conditions: protein: ivt; tags: N-terminal GST; dsDNA, one strand shown
Over roughly 33,000 sequences, “e-score” has its median near -0.05; the highest 2% begin near 0.38. The sample as a whole holds a higher share of the highest values than the screen did.
The answer is to be given in E-score; state only the numeric part.

Observe how each entry below is paired with its result.
Value of binding signal reported for the sequence CGGGGATA is 0.202

Value of binding signal reported for the sequence CACTAGGG is 0.201

Value of binding signal reported for the sequence CCAGGTAC is 0.201

// next item, binding signal requested
Value of binding signal reported for the sequence ACCCACCA is 0.2

---

Target: SIX1-Q177R homeodomain (human, UniProt Q15475 108-198, Q177R)
Sequence: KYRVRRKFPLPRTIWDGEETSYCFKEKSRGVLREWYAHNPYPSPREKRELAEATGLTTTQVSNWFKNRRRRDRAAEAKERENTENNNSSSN
Experiment: universal protein binding microarray; Universal all-10-mer PBM (8x60K, AMADID 030236), 300 nM GST-tagged protein, Alexa Fluor 488 anti-GST; buffer, salt, pH and temperature not stated (as in Berger); high values mean tight binding
Conditions: protein: ivt; tags: N-terminal GST; dsDNA, one strand shown
In all, about 33,000 sequences were measured (“e-score”: median about -0.05, highest 2% from about 0.38 on). Only a selection was taken, and the highest values are over-represented in it overall.
Just a reminder that ties go to n: only binding signal strictly below 0.2 E-score counts as y.

For orientation, consider the following solved cases.
// query Is binding signal of GCGTGTTA strictly below 0.2 E-score?
// result n

// query Is binding signal of GGGGTGGA strictly below 0.2 E-score?
// result y

// query Is binding signal of AGGATACT strictly below 0.2 E-score?
// result y

// query Is binding signal of AGACCCCT strictly below 0.2 E-score?
// result y

// query Is binding signal of CACACTCG strictly below 0.2 E-score?
// result n

// query Is binding signal of GAACACGC strictly below 0.2 E-score?
// result n

---
// query Is binding signal of GACACTCA strictly below 0.2 E-score?
// result n

// query Is binding signal of AACCCCAT strictly below 0.2 E-score?
// result y

// query Is binding signal of CTTGACAC strictly below 0.2 E-score?
// result n

// query Is binding signal of GCTAACCC strictly below 0.2 E-score?
// result y

// query Is binding signal of CACGGTCA strictly below 0.2 E-score?
// result n

// query Is binding signal of CCGAGTGA strictly below 0.2 E-score?
// result y

// query Is binding signal of ACACCCAG strictly below 0.2 E-score?
// result n

// query Is binding signal of ACCCCCCT strictly below 0.2 E-score?
// result n

// query Is binding signal of ACCGAATG strictly below 0.2 E-score?
// result y

// query Is binding signal of CGTAACAC strictly below 0.2 E-score?
// result n

// query Is binding signal of CAAGTACA strictly below 0.2 E-score?
// result n

// query Is binding signal of GAACACGA strictly below 0.2 E-score?
// result n

// query Is binding signal of CCCCTCGC strictly below 0.2 E-score?
// result y

---

Consider the following sequences and their measured binding signal readings.
Target: SIX1-Q177R homeodomain (human, UniProt Q15475 108-198, Q177R)
Sequence: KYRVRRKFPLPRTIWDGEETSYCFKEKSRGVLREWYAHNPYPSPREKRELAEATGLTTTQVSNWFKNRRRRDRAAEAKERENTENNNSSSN
Test: universal protein binding microarray; Universal all-10-mer PBM (8x60K, AMADID 030236), 300 nM GST-tagged protein, Alexa Fluor 488 anti-GST; buffer, salt, pH and temperature not stated (as in Berger); high values mean tight binding
Details: protein: ivt; tags: N-terminal GST; dsDNA, one strand shown
In all, about 33,000 sequences were measured (“e-score”: median about -0.05, highest 2% from about 0.38 on). Many of the other results were omitted from the sample, so the highest values are more common in it than they were.
The answer is to be given in E-score; state only the numeric part.

Value of binding signal reported for the sequence AGTAACCC is 0.201

Value of binding signal reported for the sequence ACCCTCGG is 0.2

Value of binding signal reported for the sequence ATCAGACA is 0.204

Origin of values: paper PMC10668032
